Tested on: Candida albicans ATCC 10231
Experiment: antifungal activity in vitro, serial dilution in RPMI 1640
Format: cell-based
Description: For the determination of antifungal activity in vitro we used method of serial dilution in buffered medium RPMI 1640, pH 7.0, in a 96-wells microplates, according to the standard procedure (National Committee for Clinical Laboratory Standards. Reference method for broth dilution antifungal susceptibility testing of yeast, approved standard, 2nd ed. M27-A2 vol. 22 Wayne, Pa., 2002). […]
valueType: Antifungal activity MIC (mg/L)
// note: answer is a bare numeric in mg/L

Study these solved cases before continuing.
compound	systemTested	displayUnit	experimentalResult
C[C@@H]1[C@H](O)[C@@H](C)/C=C/C=C/C=C/C=C/C=C/C=C/C=C/[C@H](O[C@@H]2O[C@H](C)[C@@H](O)[C@H](NC(=O)[C@H](N)COC(C)(C)C)[C@@H]2O)C[C@@H]2O[C@](O)(C[C@@H](O)C[C@@H](O)[C@H](O)CC[C@@H](O)C[C@@H](O)CC(=O)O[C@H]1C)C[C@H](O)[C@H]2C(=O)O	Candida albicans ATCC 10231	mg/L	2
C[C@@H]1[C@H](O)[C@@H](C)/C=C/C=C/C=C/C=C/C=C/C=C/C=C/[C@H](O[C@@H]2O[C@H](C)[C@@H](O)[C@H](NC3CC(=O)N(Cc4ccccc4)C3=O)[C@@H]2O)C[C@@H]2O[C@](O)(C[C@@H](O)C[C@@H](O)[C@H](O)CC[C@@H](O)C[C@@H](O)CC(=O)O[C@H]1C)C[C@H](O)[C@H]2C(=O)O (stereo partly drawn)	Candida albicans ATCC 10231	mg/L	4
C[C@@H]1[C@H](O)[C@@H](C)/C=C/C=C/C=C/C=C/C=C/C=C/C=C/[C@H](O[C@@H]2O[C@H](C)[C@@H](O)[C@H](NC(=O)[C@H](N)c3ccccc3)[C@@H]2O)C[C@@H]2O[C@](O)(C[C@@H](O)C[C@@H](O)[C@H](O)CC[C@@H](O)C[C@@H](O)CC(=O)O[C@H]1C)C[C@H](O)[C@H]2C(=O)O	Candida albicans ATCC 10231	mg/L	2
CCN(CC)CCNC(=S)N[C@@H]1[C@H](O)[C@H](O[C@H]2/C=C/C=C/C=C/C=C/C=C/C=C/C=C/[C@H](C)[C@@H](O)[C@@H](C)[C@H](C)OC(=O)C[C@H](O)C[C@H](O)CC[C@@H](O)[C@H](O)C[C@H](O)C[C@]3(O)C[C@H](O)[C@@H](C(=O)O)[C@H](C2)O3)O[C@H](C)[C@H]1O	Candida albicans ATCC 10231	mg/L	2
C[C@@H]1[C@H](O)[C@@H](C)/C=C/C=C/C=C/C=C/C=C/C=C/C=C/[C@H](O[C@@H]2O[C@H](C)[C@@H](O)[C@H](NC3CC(=O)N(CCO)C3=O)[C@@H]2O)C[C@@H]2O[C@](O)(C[C@@H](O)C[C@@H](O)[C@H](O)CC[C@@H](O)C[C@@H](O)CC(=O)O[C@H]1C)C[C@H](O)[C@H]2C(=O)O (stereo partly drawn)	Candida albicans ATCC 10231	mg/L	4

Continue with the next compound.
Enquiry: Supply Antifungal activity MIC value. Item: `C[C@@H]1[C@H](O)[C@@H](C)/C=C/C=C/C=C/C=C/C=C/C=C/C=C/[C@H](O[C@@H]2O[C@H](C)[C@@H](O)[C@H](NC(=O)[C@H](N)Cc3cccnc3)[C@@H]2O)C[C@@H]2O[C@](O)(C[C@@H](O)C[C@@H](O)[C@H](O)CC[C@@H](O)C[C@@H](O)CC(=O)O[C@H]1C)C[C@H](O)[C@H]2C(=O)O`
Return: 2

###

Test system: CCRF-CEM cells
Assay: cytotoxic activity against mammalian cells in tissue culture (MTT)
Format: cell-based, human
valueType: IC50 (cytotoxic activity)

Study these solved cases before continuing.
molecule	IC50 (cytotoxic activity)
C[C@@H]1[C@H](O)[C@@H](C)/C=C/C=C/C=C/C=C/C=C/C=C/C=C/[C@H](O[C@@H]2O[C@H](C)[C@@H](O)[C@H](NC(=O)[C@@H](N)Cc3ccc([N+](=O)[O-])cc3)[C@@H]2O)C[C@@H]2O[C@](O)(C[C@@H](O)C[C@@H](O)[C@H](O)CC[C@@H](O)C[C@@H](O)CC(=O)O[C@H]1C)C[C@H](O)[C@H]2C(=O)O	>100 µg/mL
CCCN(CC1(O)OCC(O)C(O)C1O)C1C(O)C(C)OC(OC2C=CC=CC=CC=CC=CC=CC=CC(C)C(O)C(C)C(C)OC(=O)CC(O)CC(O)CCC(O)C(O)CC(O)CC3(O)CC(O)C(C(=O)O)C(C2)O3)C1O (stereo not shown)	50.1 ± 1.3 µg/mL
C[C@@H]1[C@H](O)[C@@H](C)/C=C/C=C/C=C/C=C/C=C/C=C/C=C/[C@H](O[C@@H]2O[C@H](C)[C@@H](O)[C@H](NC(=S)NCCN3CCCCC3)[C@@H]2O)C[C@@H]2O[C@](O)(C[C@@H](O)C[C@@H](O)[C@H](O)CC[C@@H](O)C[C@@H](O)CC(=O)O[C@H]1C)C[C@H](O)[C@H]2C(=O)O	>100 µg/mL

Continue with the next molecule.
Enquiry: Supply IC50 (cytotoxic activity) value. Item: `C[C@@H]1[C@H](O)[C@@H](C)/C=C/C=C/C=C/C=C/C=C/C=C/C=C/[C@H](O[C@@H]2O[C@H](C)[C@@H](O)[C@H](NC(=S)NCCN3CCCC3)[C@@H]2O)C[C@@H]2O[C@](O)(C[C@@H](O)C[C@@H](O)[C@H](O)CC[C@@H](O)C[C@@H](O)CC(=O)O[C@H]1C)C[C@H](O)[C@H]2C(=O)O`
Return: >100 µg/mL

###

System: Candida glabrata DSM 11226
Assay: antifungal activity in vitro, serial dilution in RPMI 1640
Type: cell-based
Catalogue of Antifungal activity MIC values
// note: answer is a bare numeric in µg/mL

compound	experimentalResult
C[C@@H]1[C@H](O)[C@@H](C)/C=C/C=C/C=C/C=C/C=C/C=C/C=C/[C@H](O[C@@H]2O[C@H](C)[C@@H](O)[C@H](NC(=S)NCCN3CCCCC3)[C@@H]2O)C[C@@H]2O[C@](O)(C[C@@H](O)C[C@@H](O)[C@H](O)CC[C@@H](O)C[C@@H](O)CC(=O)O[C@H]1C)C[C@H](O)[C@H]2C(=O)O [Compound A22]	4

Continue with the next compound.
Enquiry: Supply Antifungal activity MIC value. Item: C[C@@H]1[C@H](O)[C@@H](C)/C=C/C=C/C=C/C=C/C=C/C=C/C=C/[C@H](O[C@@H]2O[C@H](C)[C@@H](O)[C@H](NC(=O)[C@@H](N)Cc3ccccc3)[C@@H]2O)C[C@@H]2O[C@](O)(C[C@@H](O)C[C@@H](O)[C@H](O)CC[C@@H](O)C[C@@H](O)CC(=O)O[C@H]1C)C[C@H](O)[C@H]2C(=O)O [Compound A30, N-L-phenylalanylamphotericin B]
Return: 2

###

Catalogue of Antifungal activity MIC values
Test system: Candida albicans ATCC 10231
Test: antifungal activity in vitro, serial dilution in RPMI 1640
Type: cell-based
// note: answer is a bare numeric in µg/mL

Study these solved cases before continuing.
molecule	Antifungal activity MIC, µg/mL
C[C@@H]1[C@H](O)[C@@H](C)/C=C/C=C/C=C/C=C/C=C/C=C/C=C/[C@H](O[C@@H]2O[C@H](C)[C@@H](O)[C@H](NC(=S)NCc3ccncc3)[C@@H]2O)C[C@@H]2O[C@](O)(C[C@@H](O)C[C@@H](O)[C@H](O)CC[C@@H](O)C[C@@H](O)CC(=O)O[C@H]1C)C[C@H](O)[C@H]2C(=O)O [Compound A29]	4
C[C@@H]1[C@H](O)[C@@H](C)/C=C/C=C/C=C/C=C/C=C/C=C/C=C/[C@H](O[C@@H]2O[C@H](C)[C@@H](O)[C@H](NC(=S)NCCN(C)C)[C@@H]2O)C[C@@H]2O[C@](O)(C[C@@H](O)C[C@@H](O)[C@H](O)CC[C@@H](O)C[C@@H](O)CC(=O)O[C@H]1C)C[C@H](O)[C@H]2C(=O)O [Compound A28]	1
C[C@@H]1[C@H](O)[C@@H](C)/C=C/C=C/C=C/C=C/C=C/C=C/C=C/[C@H](O[C@@H]2O[C@H](C)[C@@H](O)[C@H](NC(=O)[C@@H](N)Cc3ccccc3)[C@@H]2O)C[C@@H]2O[C@](O)(C[C@@H](O)C[C@@H](O)[C@H](O)CC[C@@H](O)C[C@@H](O)CC(=O)O[C@H]1C)C[C@H](O)[C@H]2C(=O)O [Compound A30, N-L-phenylalanylamphotericin B]	2

Enquiry: Supply Antifungal activity MIC value. Item: C[C@@H]1[C@H](O)[C@@H](C)/C=C/C=C/C=C/C=C/C=C/C=C/C=C/[C@H](O[C@@H]2O[C@H](C)[C@@H](O)[C@H](NC3CC(=O)N(CC(C)(C)CN(C)C)C3=O)[C@@H]2O)C[C@@H]2O[C@](O)(C[C@@H](O)C[C@@H](O)[C@H](O)CC[C@@H](O)C[C@@H](O)CC(=O)O[C@H]1C)C[C@H](O)[C@H]2C(=O)O (stereo partly drawn) [Compound A7]
Return: 4

Enquiry: Supply Antifungal activity MIC value. Item: C[C@@H]1[C@H](O)[C@@H](C)/C=C/C=C/C=C/C=C/C=C/C=C/C=C/[C@H](O[C@@H]2O[C@H](C)[C@@H](O)[C@H](NC(=S)NCCN3CCOCC3)[C@@H]2O)C[C@@H]2O[C@](O)(C[C@@H](O)C[C@@H](O)[C@H](O)CC[C@@H](O)C[C@@H](O)CC(=O)O[C@H]1C)C[C@H](O)[C@H]2C(=O)O [Compound A24]
Return: 2

Enquiry: Supply Antifungal activity MIC value. Item: C[C@@H]1[C@H](O)[C@@H](C)/C=C/C=C/C=C/C=C/C=C/C=C/C=C/[C@H](O[C@@H]2O[C@H](C)[C@@H](O)[C@H](NC(=O)[C@@H](N)Cc3ccc(I)cc3)[C@@H]2O)C[C@@H]2O[C@](O)(C[C@@H](O)C[C@@H](O)[C@H](O)CC[C@@H](O)C[C@@H](O)CC(=O)O[C@H]1C)C[C@H](O)[C@H]2C(=O)O [Compound A31, N-L-p-iodophenylalanylamphotericin B]
Return: 4

Reference for the values: patent US9745335B2
